System Under Test: CDK6 (Homo sapiens, UniProt Q00534)
Construct: Percentage values are normalized to DMSO-treated MM.1S cells and the respective loading controls; endogenous in cells; host or cells: MM.1S (human multiple myeloma)
Sequence (Q00534 whole entry): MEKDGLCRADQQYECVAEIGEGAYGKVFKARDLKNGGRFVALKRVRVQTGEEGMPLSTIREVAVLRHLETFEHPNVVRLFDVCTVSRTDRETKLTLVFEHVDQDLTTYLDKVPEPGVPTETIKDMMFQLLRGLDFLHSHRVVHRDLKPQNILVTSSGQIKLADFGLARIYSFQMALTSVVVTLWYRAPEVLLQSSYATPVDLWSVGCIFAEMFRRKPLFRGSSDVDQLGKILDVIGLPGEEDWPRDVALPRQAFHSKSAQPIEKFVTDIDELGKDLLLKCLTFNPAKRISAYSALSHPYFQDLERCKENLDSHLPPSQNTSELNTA
Test Name: CDK6 degradation, western blot of MM.1S cells
Type: cell-based
Run Parameters: MM1.S; 1 μM, 16 h, MM.1S cells, normalized to DMSO (100%); read-out: D CDK6: remaining CDK6 levels
Measure Name: remaining activity at 1 µM (%)

Consider the following illustrative entries.
{"columns": ["Compound", "Unit", "remaining activity at 1 µM"],
 "data": [
  ["CC(=O)c1c(C)c2cnc(Nc3ccc(N4CCN(CCCCCCCC(=O)N[C@H](C(=O)N5C[C@H](O)C[C@H]5C(=O)NCc5ccc(-c6scnc6C)cc5)C(C)(C)C)CC4)cn3)nc2n(C2CCCC2)c1=O [compound 22]", "%", 4.1],
  ["COc1cc(C(=O)O)ccc1NC(=O)[C@@H]1N[C@@H](CC(C)(C)C)[C@](C#N)(c2ccc(Cl)cc2F)[C@H]1c1cccc(Cl)c1F [6 (Idasanutlin), idasanutlin, reference compound]", "%", 70],
  ["CC(=O)c1c(C)c2cnc(Nc3ccc(N4CCN(CCOCCOCCOCC(=O)N[C@H](C(=O)N5C[C@H](O)C[C@H]5C(=O)N[C@@H](C)c5ccc(-c6scnc6C)cc5)C(C)(C)C)CC4)cn3)nc2n(C2CCCC2)c1=O [27 (CST620)]", "%", 15]
]}

I: CC(=O)c1c(C)c2cnc(Nc3ccc(N4CCN(CCOCCOCCOc5cc(-c6scnc6C)ccc5CNC(=O)[C@@H]5C[C@@H](O)CN5C(=O)[C@@H](NC(=O)C5(F)CC5)C(C)(C)C)CC4)cn3)nc2n(C2CCCC2)c1=O [34 (CST651)]
II: CC(=O)c1c(C)c2cnc(Nc3ccc(N4CCN(CCOCCOCCOCCNC(=O)COc5cccc6c5C(=O)N(C5CCC(=O)NC5=O)C6=O)CC4)cn3)nc2n(C2CCCC2)c1=O (centres unmarked) [8 (BSJ-03-123), BSJ-03-123, reference compound]
Enquiry: Endpoint returns whichever of I and II has the numerically higher remaining activity at 1 µM. Record your answer as the label of the chosen record.
Return: I
